Consider the following binders; for each one, report its Anti-CD28 Fab signal in the presence of CD28 (phage binding ELISA).
STUDY SYSTEM: T1, Anti-CD28 Fab (SEQ ID NOs: 696, 697)
T1 construct: In the phage ELISA the Fab was biotinylated and captured on neutravidin coated plates
T1 sequence (VH, as listed by the source, chain 1 of 2): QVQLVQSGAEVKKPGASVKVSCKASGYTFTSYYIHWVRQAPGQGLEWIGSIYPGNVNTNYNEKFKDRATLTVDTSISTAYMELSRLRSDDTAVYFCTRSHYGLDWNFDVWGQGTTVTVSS
T1 sequence (VL, as listed by the source, chain 2 of 2): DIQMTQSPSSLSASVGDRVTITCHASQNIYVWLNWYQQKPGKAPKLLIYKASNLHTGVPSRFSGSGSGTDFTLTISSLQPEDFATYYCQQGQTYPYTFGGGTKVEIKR
MEASUREMENT PROTOCOL: phage ELISA; captured anti-CD28 Fab pre-incubated with CD28 antigen as competitor, anti-M13 HRP detection;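 note: crude clonal phage supernatants screened by ELISA, with wells pre-incubated with CD28 antigen in blocking buffer, compared against wells given blocking buffer alone as control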
Please give only the number in your answer, with no unit.

The value of Anti-CD28 Fab signal in the presence of CD28 (phage binding ELISA) measured for the binder YCEGHLPAYMWKCL (Tested as clonal phage supernatant; not shown: pIII coat protein of the bacteriophage to which the peptide is fused) [Phage-1109 (Peptide-87 library clone, SEQ ID NO: 1425)] turned out to be 0.08

The value of Anti-CD28 Fab signal in the presence of CD28 (phage binding ELISA) measured for the binder YCDGHAPQYMAKCI (Tested as clonal phage supernatant; not shown: pIII coat protein of the bacteriophage to which the peptide is fused) [Phage-1115 (Peptide-87 library clone, SEQ ID NO: 1431)] turned out to be 0.06

The value of Anti-CD28 Fab signal in the presence of CD28 (phage binding ELISA) measured for the binder YCAGHALEYMGKCL (Tested as clonal phage supernatant; not shown: pIII coat protein of the bacteriophage to which the peptide is fused) [Phage-1107 (Peptide-87 library clone, SEQ ID NO: 1423)] turned out to be 0.06

The value of Anti-CD28 Fab signal in the presence of CD28 (phage binding ELISA) measured for the binder YCEGHLEIYLAKCL (Tested as clonal phage supernatant; not shown: pIII coat protein of the bacteriophage to which the peptide is fused) [Phage-1105 (Peptide-87 library clone, SEQ ID NO: 1421)] turned out to be 0.07
